# Tested on: UACC-62 melanoma
# protocol_description: NCI-60 one-dose screen, 48 h (100 = growth as untreated, 0 = no growth, -100 = all killed)
# measurement_context: 10 µM unless noted
This is part of a sample that, as a whole, favours compounds with a hit. Of some 83,000 tested, about 20% had one in any assay.

[
  {
    "molecule": "COc1cc2nnn3c4ncccc4c(N=O)c3c2cc1OC",
    "assay_system": "UACC-62 melanoma",
    "growth [%]": 86.3
  },
  {
    "molecule": "CCN(CC)CCCCCCNc1cc(OC)cc2cccnc12",
    "assay_system": "UACC-62 melanoma",
    "growth [%]": 102
  },
  {
    "molecule": "c1ccc(-c2nn(-c3ccccc3)[n+](-c3cccc4ccccc34)n2)cc1",
    "assay_system": "UACC-62 melanoma",
    "growth [%]": -2.14
  },
  {
    "molecule": "CCc1c(Nc2ccc(C)cc2)[nH]c(N)nc1=S",
    "assay_system": "UACC-62 melanoma",
    "growth [%]": 93.8
  },
  {
    "molecule": "COc1ccccc1/C=C1\\COc2ccc(-c3ccccc3)cc2C1=O",
    "assay_system": "UACC-62 melanoma",
    "growth [%]": 40.6
  },
  {
    "molecule": "COc1ccc(/C=C2\\COc3ccc(-c4ccccc4)cc3C2=O)cc1O",
    "assay_system": "UACC-62 melanoma",
    "growth [%]": 41
  },
  {
    "molecule": "COc1ccc(NC(=O)c2sc3nc(C)c(C(=O)c4ccc(OC)cc4)cc3c2N)cc1",
    "assay_system": "UACC-62 melanoma",
    "growth [%]": 46.1
  },
  {
    "molecule": "COc1cc(OC)cc(C2C3=C(COC3=O)Nc3cc(OC)ccc32)c1 (centres undefined)",
    "assay_system": "UACC-62 melanoma",
    "growth [%]": 36
  },
  {
    "molecule": "COc1cc2nc(Cc3ccc(C)cc3)[nH]c(=O)c2cc1OC",
    "assay_system": "UACC-62 melanoma",
    "growth [%]": 95.1
  }
]

---

# System: RPMI-8226 leukemia
# protocol_description: NCI-60 one-dose screen, 48 h
# measurement_context: 10 µM unless noted
Compounds without any hit were thinned out: in the full panel of roughly 83,000, 20% have a hit. Calls of active or inactive are those of the source. How the source made its calls: active means growth percent below 10; inactive means the rest.
Outcomes: true (active), false (inactive)

[
  {
    "compound": "COc1cc(-c2cc(=O)oc3cc(O)ccc23)c(OC)c2c1OCO2",
    "class": "false"
  },
  {
    "compound": "NC(=S)N/N=C(/c1ccccc1)c1ccccc1N",
    "class": "false"
  },
  {
    "compound": "Cc1cc(C)c(C=O)c(C)c1",
    "class": "false"
  },
  {
    "compound": "COc1ccc2c(/C=C3/C(=O)NC(=S)NC3C)cc(=O)oc2c1 (stereo not drawn)",
    "class": "false"
  },
  {
    "compound": "Nc1c(Cl)cc([N+](=O)[O-])cc1Br",
    "class": "false"
  },
  {
    "compound": "COc1ccc(CNC(=O)COc2ccc(/C=N/Nc3nc4ccccc4s3)cc2)cc1",
    "class": "false"
  },
  {
    "compound": "Cc1c([N+](=O)[O-])cc(C(C)(C)C)cc1[N+](=O)[O-]",
    "class": "false"
  },
  {
    "compound": "CCN1C(=O)/C(=c2\\sc3n(c2=O)NC2C(N=3)N(CC)C(=O)N2CC)c2ccccc21 (stereo not drawn)",
    "class": "false"
  },
  {
    "compound": "COc1cc2ncnc(Nc3ccc(C(=O)/C=C/c4ccc(C(F)(F)F)cc4F)cc3)c2cc1OC",
    "class": "false"
  },
  {
    "compound": "N#CSCC1CC(O)(c2ccccc2)C(c2ccccc2)C(c2ccc(F)cc2)O1 (stereo not drawn)",
    "class": "false"
  },
  {
    "compound": "COc1ccc(C(=O)/C=C/c2ccc(OCc3ccccc3)c(OC)c2)cc1OC",
    "class": "true"
  },
  {
    "compound": "CCN(CC)S(=O)(=O)c1cccc([N+](=O)[O-])c1",
    "class": "false"
  },
  {
    "compound": "CCNNC(=O)[C@@H]1[C@H](c2cc(OC)c(OC)c(OC)c2)c2cc3c(cc2[C@H](O)[C@H]1CO)OCO3",
    "class": "false"
  },
  {
    "compound": "COc1ccc(C2=NN(C(C)=O)C(c3cn(Cc4ccc(Cl)cc4)c4ccccc34)C2)cc1 (stereo not drawn)",
    "class": "false"
  },
  {
    "compound": "CC(c1ccccc1)n1ccnc1CO (stereo not drawn)",
    "class": "false"
  },
  {
    "compound": "COc1ccc(/C=C(/c2ccccc2)[N+](=O)[O-])cc1",
    "class": "true"
  },
  {
    "compound": "NC(=S)N/N=C/c1ccc(OC(=O)COc2cc(Cl)c(Cl)cc2Cl)cn1",
    "class": "false"
  },
  {
    "compound": "Cc1ccc2[nH]c(=S)n(-c3ccc(S(=O)(=O)Nc4ccc(Cl)nn4)cc3)c(=O)c2c1",
    "class": "false"
  },
  {
    "compound": "CC(C)CCSc1nc(NNC(N)=O)c(C#N)c(-c2ccccc2)n1",
    "class": "false"
  },
  {
    "compound": "c1ccc(-c2nn(-c3ccccc3)[n+](-c3cccc4ccccc34)n2)cc1",
    "class": "true"
  },
  {
    "compound": "FCc1nc2nc(Cl)c(Cl)nc2[nH]1",
    "class": "false"
  },
  {
    "compound": "COc1cc2nnn3c4ncccc4c(N=O)c3c2cc1OC",
    "class": "true"
  },
  {
    "compound": "C=Cc1cc[n+](CCCCCCCCCCCC)cc1",
    "class": "false"
  },
  {
    "compound": "COc1ccc(-c2nn(Cc3ccccc3)c3c2-c2oncc2CC3)cc1OC",
    "class": "false"
  },
  {
    "compound": "C[C@]12CCc3nc(Nc4cccc(O)c4)sc3C1=CC[C@@H]1[C@@H]2CC[C@]2(C)/C(=N\\NC(N)=S)CC[C@@H]12",
    "class": "true"
  },
  {
    "compound": "C/C(=C(/c1ccccc1)c1ccc(OCC(O)CN2CCOCC2)cc1)c1ccccc1 (stereo not drawn)",
    "class": "false"
  },
  {
    "compound": "C=CCn1c(SCC(=O)Nc2ccc(C(=O)/C=C/c3cc(OC)c(OC)c(OC)c3)cc2)nnc1-c1cc(-c2ccc(S(C)(=O)=O)cc2)nc2ccccc12",
    "class": "true"
  },
  {
    "compound": "COc1ccc(C(=O)c2cc3c(N)c(C(=O)Nc4ccc(Cl)cc4)sc3nc2C)cc1",
    "class": "false"
  }
]

Values were extracted from PubChem BioAssay (NCI).
